# tested-target: T1, full-length beta-Catenin (Uniprot ID P35222) (Homo sapiens (Human), UniProt P35222 1-781)
# T1 construct: The assay text says full-length beta-Catenin (Uniprot ID P35222); also called bCat; B-Catenin
# T1 sequence: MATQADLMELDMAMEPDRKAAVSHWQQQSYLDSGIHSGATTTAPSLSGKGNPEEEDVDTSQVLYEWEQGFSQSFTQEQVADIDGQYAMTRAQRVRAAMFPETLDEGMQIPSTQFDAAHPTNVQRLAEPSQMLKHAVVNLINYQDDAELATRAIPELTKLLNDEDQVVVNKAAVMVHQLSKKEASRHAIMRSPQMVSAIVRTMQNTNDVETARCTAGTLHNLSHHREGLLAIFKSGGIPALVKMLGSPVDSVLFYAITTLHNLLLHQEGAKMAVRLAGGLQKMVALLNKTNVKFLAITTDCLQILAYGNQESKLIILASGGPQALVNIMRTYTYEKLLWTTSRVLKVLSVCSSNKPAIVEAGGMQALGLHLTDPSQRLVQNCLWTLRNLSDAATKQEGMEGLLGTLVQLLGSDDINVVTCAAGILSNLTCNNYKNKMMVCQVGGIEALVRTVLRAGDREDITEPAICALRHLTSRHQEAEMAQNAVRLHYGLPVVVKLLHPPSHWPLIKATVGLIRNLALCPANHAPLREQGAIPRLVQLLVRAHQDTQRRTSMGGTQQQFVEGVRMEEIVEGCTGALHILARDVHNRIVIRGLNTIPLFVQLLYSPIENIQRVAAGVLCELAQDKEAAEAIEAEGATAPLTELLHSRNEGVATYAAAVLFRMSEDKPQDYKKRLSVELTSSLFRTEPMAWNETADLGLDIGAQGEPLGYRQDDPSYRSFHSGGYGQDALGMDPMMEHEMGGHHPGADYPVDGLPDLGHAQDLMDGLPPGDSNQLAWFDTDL
# assay: fluorescence polarization competition; full-length beta-catenin with 5FAM-labeled TCF4 (residues 10-53) probe as competitor
Starred links: 1 amine or outer side, 2 acyl side, 3 side chain; linkers in the order of their positions; H or OH if unused. Positions of bridges follow the written chain, without caps; N, C: chain ends. Non-standard residues stand in square brackets, D forms with d. Primed or numbered codes have the meaning given here. SeN″ = (S)-5-(((allyloxy)carbonyl)(methyl)amino)-2-amino-2-methylpentanoic acid (stapling residue), C=CCOC(=O)N(C)CCC[C@](C)(N[*:1])C(=O)[*:2]; B5(16) = 2-amino-2-(pent-4-en-1-yl)hept-6-enoic acid = 2,2-bis(4-pentenyl)glycine (stitching residue), C=CCCCC(CCCC=C)(N[*:1])C(=O)[*:2]; B5(23) = 2-amino-2-(pent-4-en-1-yl)hept-6-enoic acid (2,2-bis(4-pentenyl)glycine), stitching residue, C=CCCCC(CCCC=C)(N[*:1])C(=O)[*:2]; B5(9) = 2-amino-2-(pent-4-en-1-yl)hept-6-enoic acid (2,2-bis(4-pentenyl)glycine), C=CCCCC(CCCC=C)(N[*:1])C(=O)[*:2]; 23FF = 2,3-difluoro-L-phenylalanine, O=C([C@H](Cc1cccc(F)c1F)N[*:1])[*:2]; Phe(3-F) = N[C@@H](Cc1cccc(F)c1)C(=O)O; Bta = N[C@@H](Cc1csc2ccccc12)C(=O)O; αAllylPro = C=CC[C@@]1(C(=O)O)CCCN1; S8 = C=CCCCCCC[C@](C)(N)C(=O)O
Entries and their IC50 values follow.
Note: unit nM is implicit; provide only the numeric part.

{"binder": "Ac-[αAllylPro]DI[B5(23)]DEAAFQ[S8]F[Bta]Q-NH2 (staple 1-4, 4-11, Stapled peptide; also called Ac-PL3-Asp-Ile-B5-Asp-Glu-Ala-Ala-Phe-Gln-S8-Phe-BztA-Gln-NH2) [I-407]", "endpoint-unit": "nM", "IC50": 30}

Exercise: Endpoint output: IC50 of Ac-[αAllylPro]DA[B5(16)]DHAAFV[SeN″][Phe(3-F)][Bta]Q-NH2 (staple 1-4, 4-11; not fully specified; printed as Ac-PL3-Asp-Ala-B5-Asp-His-Ala-Ala-Phe-Val-SeN-3FF-BztA-Gln-NH2, Stapled peptide; also called Ac-PL3-Asp-Ala-B5-Asp-His-Ala-Ala-Phe-Val-SeN-3FF-BztA-Gln-NH2) [I-398] . Value?
Solution: 2160

Exercise: Next record, please: Ac-[αAllylPro]DA[B5(9)]DEAA[23FF]V[S8]F[Bta]Q-NH2 (staple 1-4, 4-11; not fully specified; printed as Ac-PL3-Asp-Ala-B5-Asp-Glu-Ala-Ala-23FF-Val-S8-Phe-BztA-Gln-NH2, Stapled peptide; also called Ac-PL3-Asp-Ala-B5-Asp-Glu-Ala-Ala-23FF-Val-S8-Phe-BztA-Gln-NH2) [I-390]
Solution: 3420

Exercise: Next record, please: Ac-[αAllylPro]DA[B5(16)]DHAAFQ[SeN″][Phe(3-F)][Bta]Q-NH2 (staple 1-4, 4-11; not fully specified; printed as Ac-PL3-Asp-Ala-B5-Asp-His-Ala-Ala-Phe-Gln-SeN-3FF-BztA-Gln-NH2, Stapled peptide; also called Ac-PL3-Asp-Ala-B5-Asp-His-Ala-Ala-Phe-Gln-SeN-3FF-BztA-Gln-NH2) [I-400]
Solution: 3590
